Tested on: Proteinase K
Assay: Protease resistance of LATM2 (SDS-PAGE)
Details: 5 μM Proteinase K, 30° C., 15 min, presence or absence of biotin
Outcome Measure: decomposition by Proteinase K

[[record]]
molecule = "TM2P46T-D116A: TM2 with 46th proline replaced with threonine and 116th aspartic acid with alanine; SEQ ID NO: 16 (protein, Synthetic TM2 P46T-D116A) MSDVQSSLTGTWYNELNSKMELTANKDGTLTGKYLSKVGDVYVPYTLSGRYNLQPPAGQGVALGWAVSWENSKIHSATTWSGQFFSESSPVILTQWLLSSSTARGDVWESTLVGNASFTKTAPTEQQIAHAQLHCRAPRLK"
result = "hardly decomposed"

[[record]]
molecule = "TM2 S36A: TM2 in which the 36th serine was replaced with alanine; SEQ ID NO: 6 (protein, Synthetic TM2 S36A) MSDVQSSLTGTWYNELNSKMELTANKDGTLTGKYLAKVGDVYVPYPLSGRYNLQPPAGQGVALGWAVSWENSKIHSATTWSGQFFSESSPVILTQWLLSSSTARGDVWESTLVGNDSFTKTAPTEQQIAHAQLHCRAPRLK"
result = "hardly decomposed"

[[record]]
molecule = "TM2P46T-T78A-D116A: TM2 with P46T, T78A and D116A replacements; SEQ ID NO: 18 (protein, Synthetic TM2 P46T-T78A-D116A) MSDVQSSLTGTWYNELNSKMELTANKDGTLTGKYLSKVGDVYVPYTLSGRYNLQPPAGQGVALGWAVSWENSKIHSAATWSGQFFSESSPVILTQWLLSSSTARGDVWESTLVGNASFTKTAPTEQQIAHAQLHCRAPRLK"
result = "hardly decomposed"

